Reference for the values: PubChem BioAssay (NCI)

- Tested on: 786-0 renal
- assayDetails: NCI tumour cell line growth inhibition, 48 h
Kindly supply the reported TGI values for the records listed here.
Give the value in µM but do not write µM after it.

So the reported TGI for O=C1/C(=C\c2ccccn2)c2ccccc2N1c1c(Cl)cccc1Cl , on 786-0 renal, turned out to be 3.49

# CCOC(=O)C(Cc1cccn1C(=O)OC(C)(C)C)[N+](=O)[O-] (stereo unspecified) with 786-0 renal: TGI is 51.3

Hey, 786-0 renal data for O=C(CNc1ccccc1[N+](=O)[O-])Nn1c(-c2ccccc2)nc2ccccc2c1=O : TGI came out at 34.5

====

Provide the recorded TGI for the entries that follow.
- Tested on: SK-MEL-5 melanoma
- assayDetails: NCI tumour cell line growth inhibition, 48 h

For reference, reported TGI for Cc1cc(=O)oc2c(C)c(OCCCOc3ccc4c(C)cc(=O)oc4c3C)ccc12 stands at > 100 µM

For reference, reported TGI for C=C[C@@]1(O)CCCC2=C(C(=O)OCC)CC[C@]21C stands at > 100 µM

TGI in this record for CCCCON1C[C@H](OC(C)=O)C(OC(C)=O)[C@H](OC(C)=O)C1 (stereo not given in full) : > 100 µM

Sample N#CCN/C=C\C(=O)c1ccc(Cl)cc1 ; TGI observed: 38.8 µM

For COC1=CC(=O)C2C(C1=O)C(c1ccccc1)[C@H]2C (stereo not given in full) the compound record lists TGI as > 100 µM

// sample CC(=O)N=C1N(/C=C2\C(=O)Oc3ccccc3C2=O)C(=O)/C(=C/c2ccc(Cl)cc2Cl)N1C , its TGI was > 100 µM

Summary for this compound, Cn1c(=O)c2nc(-c3ccc(Cl)cc3)oc2n(C)c1=O : TGI is > 100 µM

The value of TGI measured for the compound CC(C)C1=CC23CCC4C(C)(C(=O)O)CCCC4(C)C2CC1C1C(=O)N(c2ccccc2)C(=O)C13 (stereo not given) turned out to be > 100 µM

Per the records, this compound ( COc1cc(Nc2nc3ccccc3cc2C(=O)Nc2ccc(F)c(F)c2)cc(OC)c1OC ) has TGI equal to 3.11 µM

Note to self: TGI recorded for C[N+](C)(C)CC(=O)N/N=C(\C(=O)NC1=C(Cl)C(=O)c2ccccc2C1=O)C(C#N)c1csc(-c2ccc([N+](=O)[O-])cc2)n1 (stereo not given) was > 100 µM

====

For each entry below, report its TGI value.
- Test system: DU-145 prostate
- assayDetails: NCI tumour cell line growth inhibition, 48 h

// sample CCN(CC)CCCNC(=O)c1c2c(n3ccccc13)C(=O)c1ncccc1C2=O , its TGI was 2.56 µM

TGI for CC(C)=CCC/C(C)=C/CC/C(C)=C/CC/C(=C/CC/C(C)=C\CC/C(C)=C/CC/C(C)=C/CC/C(C)=C/Cc1cc(O)ccc1O)CO is > 100 µM

For O=[N+]([O-])c1ccc(C=NCC2CCCN3CCCCC23)cc1 (centres undefined) the compound record lists TGI as > 100 µM

Reported TGI for CCCCCCCCCCC1OC([C@@H](O)CC[C@H](O)C2CC[C@@H](CCCCCCCC(O)CC3=CC(C)OC3=O)O2)CCC1O (some centres undefined) was > 25 µM

So, COC(=O)Cc1ccc(Oc2cnc3cc(F)c(F)cc3n2)cc1 ? Its TGI was > 100 µM

// field: TGI; key: CN(CCNCc1cn(C)c2c1ccc1ccccc12)CCNCc1cn(C)c2c1ccc1ccccc12 ; value = 2.76 µM

TGI for Nc1ccc(C(=O)c2cn(CCN3CCOCC3)c3ccccc23)c2ccccc12 is > 100 µM

GET /value?item= O=[N+]([O-])c1cc2c(cc1/C=N/n1c(CO)nc3ccccc31)OCO2 &field=TGI returns > 100 µM

Sample NC1=CN2c3ccccc3N(CC(=O)O)C2C=C1 (centres undefined) ; TGI observed: > 100 µM

====

- Test system: MOLT-4 leukemia
- assayDetails: NCI tumour cell line growth inhibition, 48 h
valueKind: TGI (µM)
# value in µM; strip the unit string

Input CC(C)(C)C(=O)OC12/C(=N/O)CCCCCC1c1ccccc12 (stereo not given) . Output TGI: 34.4

Just so you know, measured TGI for COc1ccccc1CNCCCN1C(=O)c2ccc3c4c(ccc(c24)C1=O)C(=O)N(CCCCNCCCN)C3=O came out at 1.7

Per the records, this compound ( C=C1CCC2C(C)(COC(=O)CC)C(OC(=O)CC)CCC2(C)C1C/C=C1/C(=O)OCC1OC(=O)CC (stereo not given) ) has TGI equal to 11.6

Consider COc1nc(N)nc2c1ncn2C1OC(CO)C(O)C1O (stereo not given) . Its measured TGI is 2260

Per the records, this compound ( CCN(CC)CCNC(=O)c1cn2c(ccc3sc4ccccc4c(=O)c32)n1 ) has TGI equal to 11.9

# TGI (compound: COC(=O)Cc1ccc(Oc2cnc3cc(F)c(F)cc3n2)cc1 ) is 32.9

Summary for this compound, O=C1C=CC(=O)c2cc(Sc3ccccc3)c(=O)ccc21 : TGI is 16

Value of measured TGI for the entry COC(=O)c1cc(O)c2c(c1C(=O)OC)C[C@H]1[C@@H]3CC=C4C[C@@H](O)CC[C@]4(C)[C@H]3CC[C@]21C : 5.56

According to the records, this compound Cc1ccc(C)c(C2NC(=O)c3ccccc3N2)c1 (stereo not given) displays TGI of 31.9

Notebook: CCOC(=O)C(C)(C)Oc1ccc(/C=C/C(=O)c2ccc(Cl)cc2)cc1 , TGI read as 76.8

Notebook: O=Cc1cccc2c1Oc1c(cccc1C(=O)O)S2 , TGI read as 68.1

====

- System: OVCAR-3 ovarian
- assayDetails: NCI tumour cell line growth inhibition, 48 h
valueKind: TGI (µM)
State just the number; it will be interpreted in µM.

# compound CCOC(=O)C(Cc1cccn1C(=O)OC(C)(C)C)[N+](=O)[O-] (stereo not given) ; its TGI = 98.2

// recorded TGI for CC(C)=CCC/C(C)=C/CC/C(C)=C/CC/C(=C/CC/C(C)=C\CC/C(C)=C/CC/C(C)=C/CC/C(C)=C/Cc1cc(O)ccc1O)CO : 16.5

Just so you know, measured TGI for CCOC(=O)C(C)(C)Oc1ccc(/C=C/C(=O)c2ccc(Cl)cc2)cc1 came out at 30.4

The value of TGI measured for the compound Cc1ccc2nc(-c3ccc(N4C(=O)C(Cl)C4c4ccc(Cl)cc4)cc3)sc2c1 (stereo not given) turned out to be 40.1

====

For each record, write down the corresponding log10 TGI.
- System: NCI/ADR-RES ovarian
- assayDetails: NCI tumour cell line growth inhibition, 48 h
Values are log10 of TGI in µM.

// CC(C)=CCC/C(C)=C/CC/C(C)=C/CC/C(=C/CC/C(C)=C\CC/C(C)=C/CC/C(C)=C/CC/C(C)=C/Cc1cc(O)ccc1O)CO : log10 TGI value = 1.29

Value of measured log10 TGI for the entry CC(=O)OCC1OC(Oc2cc(C)c(O)cc2C/C=C(\C)CC/C=C(\C)CC(=O)CC(C)C)C(O)C(OC(C)=O)C1OC(C)=O (centres undefined) : 1.50

For reference, reported log10 TGI for CN(CCNCc1cn(C)c2c1ccc1ccccc12)CCNCc1cn(C)c2c1ccc1ccccc12 stands at 0.40

Given item C=C1C(=O)O[C@H]2[C@@H](O)[C@H](C)CCC[C@]3(C)O[C@H]3CC[C@@]3(C)O[C@@H]3C[C@@H]12 , the value recorded as its log10 TGI is 1.28

Reported log10 TGI of CCOC(=O)CC1C(COC(=O)NC)OC(n2cnc3c(NC(=O)Nc4ccccc4)ncnc32)C1O[Si](C)(C)C(C)(C)C (centres undefined) : 1.49

Short answer for Cc1ccc2nc(-c3ccc(N4C(=O)C(Cl)C4c4ccc(Cl)cc4)cc3)sc2c1 (centres undefined) : log10 TGI was 1.59

For CCOC(=O)c1sc2[n+](c1C)C(=O)/C(=C/c1ccc([N+](=O)[O-])cc1)S2 the molecule record lists log10 TGI as 1.63

Lab note: measured log10 TGI of O=C(/C=C/c1ccccc1)n1c(-c2ccc(Cl)cc2)nc2ccccc21 was 1.79

log10 TGI measured on COC(=O)N1CC2C3C4CC(C(c5ccccc5)=C4c4ccccc4)C3C21 (centres undefined) = 1.55

The measured log10 TGI associated with Cc1noc(NC2=CC(=O)C(=O)c3ccccc32)c1C reads 1.33

Sample COc1cc(CNc2ccccc2C(=O)N2CCN(C(=O)c3cc(-c4cc(OC)c(OC)c(OC)c4)n4nc(-c5ccccc5)cc4n3)CC2)cc(OC)c1OC ; log10 TGI observed: 0.76

log10 TGI recorded for this molecule, CCCCCCCCCCCCCCCC(=O)N(CCCCCCCCCCC(=O)O)CC(O)C(O)C(OC1OC(CO)C(O)C(O)C1O)C(O)CO (centres undefined) , is 1.79

Note to self: log10 TGI recorded for Cc1ccc(N(CC(=O)Nc2ccc(S(=O)(=O)N3CCC(N4CCCC4)CC3)cc2)S(=O)(=O)c2ccc(Cl)cc2)cc1 was 0.61

Briefly, log10 TGI measured for N#CCN/C=C\C(=O)c1ccc(Cl)cc1 : 1.90

// log10 TGI value for O=C(Nc1ccc(-n2ccc3c(NC(=O)c4ccccc4)ncnc32)cc1)Nc1cccc(Cl)c1Cl : 0.86

log10 TGI measured on Nc1ccc(C(=O)c2cn(CCN3CCOCC3)c3ccccc23)c2ccccc12 = 1.81

molecule O=C(OCc1ncc(-c2ccc(C(F)(F)F)cc2)c(NC2CCCCCC2)n1)c1c(F)c(F)c(F)c(F)c1F , log10 TGI observed: 1.74
